Experiment: Pharmacokinetics of different salt forms of ocinaplon after a single oral dose
Assay type: in vivo
Settings: male, beagle, dog, plasma, po, 30 mg/kg, male beagle dogs; single oral dose 30 mg Base/kg; 0.5% methylcellulose suspension; mean (CV %), N = 5
Experimental: The test compounds were prepared in 0.5% methylcellulose. The target concentrations of the free base and HBr salt were 1.0 and 1.34 mg/mL (equivalent to 1 mg of the free base), respectively. The liquid suspensions were administered via oral gavage. […] Blood (approximately 2 mL) was collected from a jugular vein via syringe and needle and transferred into tubes containing K2EDTA anticoagulant predose and at 0.5, 1, 2, 3, 4, 6, 8, 12, and 24 hours postdose. […] Samples were analyzed using an LC/MS/MS method. […]
Structures can show the parent of a compound that is named as a salt.
Entries and their measured AUC(0-t) follow.
measurementLabel: AUC(0-t) (ng·h/mL)

- compound: "O=C(c1ccccn1)c1cnn2c(-c3ccncc3)ccnc12 [Ocinaplon disulfate salt]"
  resultValue: 46300
- compound: "Cl.Cl.O=C(c1ccccn1)c1cnn2c(-c3ccncc3)ccnc12 [Ocinaplon di HCl salt]"
  resultValue: 57100
